Below, each entry is listed alongside its reported GI50.
tested on: WT EGFR cell line A-431; test: Cell proliferation, WT EGFR A431 (CellTiter-Glo, 72 h); type: cell-based; conditions: Homo sapiens, A-431, 72 h, A431, 72 h proliferation; read-out: EGFR WT A431 GI50;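 further: proliferation from a luminescent ATP viability signal, expressed as 100 × (treated minus time-zero plate) over (DMSO control minus time-zero plate), cells grown with 10% FBS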

[
  {
    "compound": "C=CC(=O)Nc1cc(Nc2ncnc(Nc3cc(F)c(F)cc3C(C)(O)CC)n2)c(OC)cc1N1CC[C@@H]1CN(C)C (stereo partly shown)",
    "GI50 / nM": 14.6
  },
  {
    "compound": "C=CC(=O)Nc1cc(Nc2ncnc(Nc3cc(F)c(F)cc3C(C)(O)CC)n2)c(OC)cc1N1CC[C@@H](N(C)C)C1 (stereo partly shown)",
    "GI50 / nM": 14.1
  },
  {
    "compound": "C=CC(=O)Nc1cc(Nc2ncnc(Nc3cc(F)c(F)cc3C(C)(C)O)n2)c(OC)cc1N(C)C[C@H]1CCCN1C",
    "GI50 / nM": 16.5
  },
  {
    "compound": "C=CC(=O)Nc1cc(Nc2ncnc(Nc3cc(F)c(Cl)cc3C(C)(C)O)n2)c(OC)cc1N1CC[C@@H]1CN(C)C",
    "GI50 / nM": 13.3
  },
  {
    "compound": "C=CC(=O)Nc1cc(Nc2ncnc(Nc3cc(F)c(F)cc3C(C)(O)CC)n2)c(OC)cc1N1CC[C@@H]2CN(C)C[C@@H]21 (stereo partly shown)",
    "GI50 / nM": 10.9
  },
  {
    "compound": "C=CC(=O)Nc1cc(Nc2ncnc(Nc3cc(F)c(F)cc3C(C)(C)O)n2)c(OC)cc1N1CCOC[C@@H]1CN(C)C",
    "GI50 / nM": 21.9
  },
  {
    "compound": "C=CC(=O)Nc1cc(Nc2ncnc(Nc3cc(Cl)c(F)cc3C(C)(C)O)n2)c(OC)cc1N(C)CCN1CCC[C@@H]1C",
    "GI50 / nM": 53.2
  },
  {
    "compound": "C=CC(=O)Nc1cc(Nc2nccc(Nc3cc(Cl)c(F)cc3C(C)(O)CC)n2)c(OC)cc1N1CC[C@@H](N(C)C)C1 (single isomer, unassigned)",
    "GI50 / nM": 38.3
  },
  {
    "compound": "[2H]C([2H])([2H])N(CCN(C)c1cc(OC)c(Nc2ncnc(Nc3cc(F)c(Cl)cc3C(C)(C)O)n2)cc1NC(=O)C=C)C([2H])([2H])[2H]",
    "GI50 / nM": 10.3
  },
  {
    "compound": "C=CC(=O)Nc1cc(Nc2ncnc(Nc3cc(Cl)c(F)cc3C(C)(C)O)n2)c(OC)cc1N1CCC[C@H]1CN(C)C",
    "GI50 / nM": 234
  },
  {
    "compound": "C=CC(=O)Nc1cc(Nc2ncnc(Nc3cc(Cl)c(F)cc3C(C)(C)O)n2)c(OC)cc1N(C)C[C@@H]1CCCN1C",
    "GI50 / nM": 14.8
  },
  {
    "compound": "C=CC(=O)Nc1cc(Nc2ncnc(Nc3cc(F)c(F)cc3C(C)(C)O)n2)c(OC)cc1N(C)CCN(C)C",
    "GI50 / nM": 15.7
  },
  {
    "compound": "C=CC(=O)Nc1cc(Nc2nccc(Nc3cc(Cl)c(F)cc3C(C)(C)O)n2)c(OC)cc1N1CC(F)(F)C[C@@H]1CN(C)C",
    "GI50 / nM": 42
  }
]
